- Tested on: TRPM6;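 note: KINOMEscan kinase panel screen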
- MEASUREMENT_SETUP: concentration: 1 μM, replicates: in singlicate; n = 1
REPORTED_PROPERTY: %Inh

Entry O=c1cc(N2CCOCC2)nc2n(Cc3cccc(Cl)c3Cl)c(C3CC3)nn12 , tested on TRPM6, has a reported %Inh of 0%

The compound Fc1ccc(-c2nn3c(OCC(F)(F)F)cccc3c2-c2ccncc2)cc1 on TRPM6: %Inh was 0%

Fill in: TRPM6 %Inh for Cc1cn2c(=O)cc(N3CCOCC3)nc2n1Cc1cccc(Cl)c1Cl = 0%

So the reported %Inh for Cn1ccc2ncnc(Oc3ccc(NC(=O)Nc4ccncc4)c(Cl)c3)c21 , on TRPM6, turned out to be 0%

Bench note, TRPM6: entry CC(C)(C)n1cnc2c(N)ncnc21 , its %Inh = 3%

%Inh of Cn1cc(-c2ccc3c(c2)CCN3C(=O)Cc2ccccc2Cl)c2c(N)ncnc21 , assay on TRPM6, is 33%

Let me check: O=C1NC(=O)C(N2CCc3ccccc32)=C1c1cccc(Cl)c1 , system TRPM6, measured %Inh is 21%

Item: O=c1cc(N2CCOCC2)nc2n(Cc3cccc(C(F)(F)F)c3)ccn12 | System: TRPM6 | %Inh: 0%

Observed %Inh, TRPM6, Nc1nccc(-c2c(-c3ccc(F)cc3)ncn2C2CCN(CC(F)(F)F)CC2)n1 : 0%

Entry Cc1cccc(-c2nc(-c3ccc(S(C)(=O)=O)cc3)sc2-c2ccncc2)c1 under TRPM6 had %Inh of 9%

Observed %Inh, TRPM6, COc1cc(Nc2nccc(N3CCC(NC(=O)c4cccc(NC(C)=O)c4)C3)n2)cc(OC)c1OC (stereo not shown) : 22%

O=C(NCCCN1CCOCC1)c1cccc(Nc2nccc(Nc3ccc(Oc4ccccc4)cc3)n2)c1 on TRPM6 gives %Inh = 52%

# value of %Inh, TRPM6, item Cc1nnc(-c2ccc3ncc(-c4ccc(S(C)=O)cc4)n3c2)o1 (stereo not shown) = 6%

GET /values?item= COc1cc2c(cc1OCCN1CCN(C)CC1)ncc1c3ccc(C#N)cc3[nH]c21 &system= TRPM6 returns %Inh: 0%

// assay TRPM6, entry O=C(c1ccc(-c2cc(-c3c[nH]nc3-c3ccccn3)ccn2)cc1)N1CCOCC1 , %Inh value = 17%

The reported TRPM6 %Inh of O=c1cc(N2CCOCC2)nc2n(Cc3cccc4ccccc34)ccn12 is 2%
